Measured IC50 accompanies every entry in the list below.
# measurement_target: PRMT5-MEP50 enzyme complex (Homo sapiens (Human), UniProt O14744)
# Sequence (O14744 2-637): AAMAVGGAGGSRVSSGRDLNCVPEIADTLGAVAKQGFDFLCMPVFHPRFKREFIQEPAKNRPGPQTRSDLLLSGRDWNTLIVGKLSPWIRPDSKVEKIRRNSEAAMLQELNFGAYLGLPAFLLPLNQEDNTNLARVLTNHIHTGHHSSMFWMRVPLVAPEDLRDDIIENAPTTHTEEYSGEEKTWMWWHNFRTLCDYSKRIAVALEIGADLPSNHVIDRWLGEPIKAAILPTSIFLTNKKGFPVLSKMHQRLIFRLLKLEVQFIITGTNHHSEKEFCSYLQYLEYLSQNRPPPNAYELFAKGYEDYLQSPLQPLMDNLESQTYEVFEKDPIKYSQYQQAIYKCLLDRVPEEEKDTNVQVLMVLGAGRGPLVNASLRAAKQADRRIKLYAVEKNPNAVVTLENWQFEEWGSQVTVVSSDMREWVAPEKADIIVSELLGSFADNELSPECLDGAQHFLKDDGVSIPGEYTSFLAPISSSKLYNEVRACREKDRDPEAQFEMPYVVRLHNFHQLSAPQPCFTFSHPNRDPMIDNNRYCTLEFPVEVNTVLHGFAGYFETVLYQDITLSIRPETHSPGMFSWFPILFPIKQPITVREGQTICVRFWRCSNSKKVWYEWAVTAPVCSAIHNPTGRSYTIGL
# Sequence (Q9BQA1 2-342 partner): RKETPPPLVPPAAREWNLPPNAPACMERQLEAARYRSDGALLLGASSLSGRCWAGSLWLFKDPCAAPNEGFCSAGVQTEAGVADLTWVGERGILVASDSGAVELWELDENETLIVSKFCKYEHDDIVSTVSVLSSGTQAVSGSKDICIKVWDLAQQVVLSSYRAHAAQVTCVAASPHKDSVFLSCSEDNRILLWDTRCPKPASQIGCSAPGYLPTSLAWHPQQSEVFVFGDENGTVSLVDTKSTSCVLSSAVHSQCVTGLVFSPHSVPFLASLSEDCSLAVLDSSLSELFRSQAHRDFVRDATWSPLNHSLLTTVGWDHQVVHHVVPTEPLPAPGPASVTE
# assay_overview: PRMT5 enzyme activity in vitro assay (methylation of histone H4R3, ELISA absorbance at 450 nm)
# experimental_context: SAM, histone H4 peptide, room temperature 2 hours, 8 points from 10 μM to 0.128 nM

Consider the worked cases shown below.
> print(dat)
                                   compound                        measurement.target  readout  reported.value
1  CCC1CCCN1Cc1ccc2c(c1)OCCN(C[C@H](O)CN1CCc3ccccc3C1)C2=O (stereo partly shown)  PRMT5-MEP50 enzyme complex (Homo sapiens (Human), UniProt O14744)     IC50  100 to 1000 nM
2  CC1(C)CN(C[C@H](O)CN2CCc3ccccc3C2)C(=O)c2ccc(OC3CCN(CCO)CC3(F)F)nc2O1 (stereo partly shown)  PRMT5-MEP50 enzyme complex (Homo sapiens (Human), UniProt O14744)     IC50  100 to 1000 nM
3  CN1CCC[C@H](Oc2ccc3c(c2)OCCN(C[C@H](O)CN2CCc4ccccc4C2)C3=O)C1  PRMT5-MEP50 enzyme complex (Homo sapiens (Human), UniProt O14744)     IC50  100 to 1000 nM
4  CN1CCN(C[C@H](O)CN2CCc3ccccc3C2)C(=O)c2ccc(C3=CCN(C(=O)OC(C)(C)C)CC3)cc21  PRMT5-MEP50 enzyme complex (Homo sapiens (Human), UniProt O14744)     IC50     1 to 100 nM
5  C[C@@H]1CCCN1Cc1ccc2c(c1)OCCN(C[C@H](O)CN1CCc3ccccc3C1)C2=O  PRMT5-MEP50 enzyme complex (Homo sapiens (Human), UniProt O14744)     IC50  100 to 1000 nM
6  COc1ccc2c(c1)CCCN(CC(O)CN1CCc3ccccc3C1)C2=O (stereo not shown)  PRMT5-MEP50 enzyme complex (Homo sapiens (Human), UniProt O14744)     IC50  100 to 1000 nM

Missing value: IC50, PRMT5-MEP50 enzyme complex (Homo sapiens (Human), UniProt O14744), entry C[C@@H]1CN(C[C@H](O)CN2CCc3ccccc3C2)C(=O)c2ccc(OC3CC4CCC(C3)N4CCO)cc2O1 (stereo partly shown) . Fill in?
100 to 1000 nM

Missing value: IC50, PRMT5-MEP50 enzyme complex (Homo sapiens (Human), UniProt O14744), entry `CN1CCC(Oc2ccc3c(c2)OC(C)(C)CN(C[C@H](O)CN2CCc4ccccc4C2)C3=O)CC1` . Fill in?
100 to 1000 nM

Missing value: IC50, PRMT5-MEP50 enzyme complex (Homo sapiens (Human), UniProt O14744), entry `CC(C)(C)OC(=O)N1CCC(Oc2ccc3c(c2)OCCN(C[C@H](O)CN2CCc4ccccc4C2)C3=O)CC1` . Fill in?
1 to 100 nM

====

# measurement_target: PRMT5-MEP50 enzyme complex (Homo sapiens (Human), UniProt O14744)
# assay_overview: PRMT5 enzyme activity in vitro assay (methylation of histone H4R3, ELISA absorbance at 450 nm)
# experimental_context: SAM, histone H4 peptide, room temperature 2 hours, 8 points from 10 μM to 0.128 nM
# Experimental: Method for Measuring Enzyme Activity In vitro assay: PRMT5-MEP50 enzyme complex, cofactor S-adenosylmethionine (SAM) and histone H4 peptide were reacted in vitro, and methylation of arginine (H4R3)—which is the third amino acid of histone H4—was measured in order to measure the enzyme activity of PRMT5. […]
pIC50: −log10 of the molar value.
readout: pIC50

> print(dat)
                                   compound  readout  reported.value
1  O=C1c2ccc(CN3CC4CCCC4C3)cc2OCCN1C[C@H](O)CN1CCc2ccccc2C1 (stereo partly shown)    pIC50    7.00 to 9.00
2  CN1CCC[C@@H](Oc2ccc3c(c2)OCCN(C[C@H](O)CN2CCc4ccccc4C2)C3=O)C1    pIC50    6.00 to 7.00
3  CC(=O)N1CC(Oc2ccc3c(c2)OCCN(C[C@H](O)CN2CCc4ccccc4C2)C3=O)C1    pIC50    6.00 to 7.00

Which measured pIC50 value corresponds to `C[C@H]1CN(C[C@H](O)CN2CCc3ccccc3C2)C(=O)c2ccc(OC3CN(CCF)C3)cc2O1` ?
6.00 to 7.00

Where do the numbers come from? From patent US11111237B2.
